# TARGET OF ASSAY: T1, ROR1 extracellular segment with Kringle domain removed on CHO cells (human, UniProt Q01973 30-472, limits assumed)
# T1 construct: Transfected into CHO cells; also called CHO-ROR1 (with Kringle domain removed)
# T1 sequence (Q01973 other isoform, or with tags, fused parts or gaps limits assumed): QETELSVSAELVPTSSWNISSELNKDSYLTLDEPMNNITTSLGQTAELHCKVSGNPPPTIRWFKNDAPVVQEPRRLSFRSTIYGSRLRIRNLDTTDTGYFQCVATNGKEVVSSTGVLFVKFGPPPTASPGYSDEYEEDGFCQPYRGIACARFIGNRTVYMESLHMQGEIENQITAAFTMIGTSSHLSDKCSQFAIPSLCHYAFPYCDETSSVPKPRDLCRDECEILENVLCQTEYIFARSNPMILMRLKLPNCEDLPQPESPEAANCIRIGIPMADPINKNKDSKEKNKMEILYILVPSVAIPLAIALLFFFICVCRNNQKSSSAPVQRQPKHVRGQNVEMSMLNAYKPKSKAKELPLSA
# TEST: FACS, CHO-ROR1 (with Kringle domain removed) cells
EXPERIMENTAL READOUT: EC50
Quick note: number first, unit second.

What measured EC50 goes with mAb009c (antibody, V domains shown, Human-mouse chimeric) VH: EVQLQQSGPELVKPGASLKLSCKASGYTFPDYNIHWVKQSHGKSLEWIGYINPNNGNTNYNQKFEGKATLTVSKSSSTAYMELRSLTSDDSAVYSCARRGYGSSYAMDFWGQGTSVTVSS VL: DVLMTQTPLSLPVSLGNQASISCRSSHIIVHTNGNTYLEWYLQKPGQSPKLLIYKVSNRFSGVPDRFSGSGSGTDFTLKISRVEAEDLGVYYCFQGSRVPYTFGGGTKLEIK ?
1.62 nM

Then this binder:
What measured EC50 goes with mAb001c (antibody, V domains shown, Human-mouse chimeric; also called human-mouse chimeric antibody mAb001c) VH: EVRLQQSGPVLVKPGASVKMSCKASGYTFTDYNLHWVKQSHRQSLEWIGYINPNHDGTSYNQKFQGKATLTVDRSSSTAYMEFRSLTSEDSAVYYCARRVRTGTGLDDWGQGTTLTVSS VL: DVLMTQSPLSLPVSLGDQASISCRSSHNIVHTNGNTYLEWYLQKPGQSPKLLIYKVSNRFSGVPDRFSGSGSGTYFTLTISRVEAEDLGVYYCFQGSRFPYTFGGGTKLEIK ?
0.38 nM
